Test: qHTS assay for small molecule antagonists of retinoid X receptor alpha signaling (AID 588546);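 further: cells stimulated with 9-cis-retinoic acid as agonist; on the % scale 0 is the no-effect control and ±100 the full control effect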
Conditions: HEK293T RXRa-UAS-bla, beta-lactamase ratio, antagonist mode; measured here: W530 green channel, cytotoxicity proxy
Results filed as inconclusive are left out.
The entries below are paired with their reported max response.
A number alone suffices; assume %.

Some compounds with recorded max response:
Query Nc1nc2ccc([N+](=O)[O-])cc2s1 yields max response of 0.666

Looking up NCCO , I found its max response recorded as -11.1

So, O=C(Nc1ccccc1)c1cc([N+](=O)[O-])ccc1Cl ? Its max response was -9.1

// sample CC1(C)S[C@@H]2[C@H](NC(=O)[C@H](N)c3ccccc3)C(=O)N2[C@H]1C(=O)O , its max response was -6.23

Lookup result for N=C1N=C(N)c2cc3ccccc3cc21 ; measured max response: -9.13

# ---- query compound ----
# compound CC(C)NCC(O)COc1cccc2ccccc12 (stereo unspecified) ; its max response = 8.19

* * *

Test system: CP203
Assay: qHTS profiling for inhibitors of Plasmodium falciparum proliferation (AID 504749); further: nearly all actives have a fitted effect of over 60% in size
Conditions: P. falciparum in erythrocytes, SYBR Green DNA, 72 h; series mostly up to 28.7 µM
Results filed as inconclusive are left out. Active and inactive are the calls of the source. The call rests on the fitted dose curve; in most records, active means well fitted inhibition curve with a large enough effect; inconclusive means small, poorly fitted or top-dose-only effect; inactive means flat fitted curve, though single readings scatter.
A correct response names exactly one class from active, inactive

Example results:
Exercise: Please indicate how the test categorized [O-][n+]1ccccc1SSc1cccc[n+]1[O-] .
Solution: active

Exercise: How was Nc1ccc(O)c(C(=O)O)c1 classified in this test?
Solution: inactive

Exercise: For N=c1ccn2c(n1)O[C@H]1[C@H](O)[C@@H](CO)O[C@H]12 , which call appears in the assay record?
Solution: inactive

Exercise: Per the records of this test, what outcome belongs to CCCC(=O)OC[C@@H](OC(=O)CCC)[C@@H](OC(=O)CCC)[C@H](Cn1c2nc(=O)[nH]c(=O)c-2nc2cc(C)c(C)cc21)OC(=O)CCC ?
Solution: inactive

Exercise: Tell me the assay call for Cc1ccc(C(=O)c2ccc(CC(=O)O)n2C)cc1 please.
Solution: inactive

More entries:
Exercise: What did this assay record as the result for CCOC(=O)c1ccccc1O ?
Solution: inactive

Exercise: For Cc1c(Nc2ncccc2C(=O)O)cccc1C(F)(F)F , what call appears in the results of this test?
Solution: inactive

Exercise: What outcome does the record of this test show for O=C(OCc1ccccc1)c1ccccc1 ?
Solution: inactive

Exercise: I'd appreciate the recorded outcome for Cc1ccc(O)c(-n2nc3ccccc3n2)c1 from this test.
Solution: inactive

Exercise: Could you please tell me the result logged for CCCCCCOc1ccccc1C(N)=O in this assay?
Solution: inactive

Exercise: I would be grateful if you could indicate the recorded call for CN1[C@@H](CC(=O)c2ccccc2)CCC[C@H]1C[C@H](O)c1ccccc1 .
Solution: inactive

Exercise: Hi, do you know how COc1ccc(/C=C/C(=O)Nc2ccccc2C(=O)O)cc1OC came out in this test?
Solution: inactive

* * *

Test system: CP265
Test: qHTS profiling for inhibitors of Plasmodium falciparum proliferation (AID 504749); further: nearly all actives have a fitted effect of over 60% in size
Conditions: P. falciparum in erythrocytes, SYBR Green DNA, 72 h; series mostly up to 28.7 µM
Inconclusive results are not listed. Calls of active or inactive are those of the source. The call rests on the fitted dose curve; in most records, active means well fitted inhibition curve with a large enough effect; inconclusive means small, poorly fitted or top-dose-only effect; inactive means flat fitted curve, though single readings scatter. Where a SMILES comes first, the peptide text is derived from it. [ ]: non-standard residue; d: D form. pGlu = O=C1CC[C@@H](C(=O)O)N1; Thz = O=C(O)[C@@H]1CSCN1
Lab note: assign the record to one of active, inactive

Examples from the recorded data:
Exercise: Outcome? CN(C)c1ccc(C(=C2C=CC(=[N+](C)C)C=C2)c2ccccc2)cc1
Solution: active

Exercise: So what was the verdict on C=CCN1C(=O)C(CC(C)C)NC1=S (configuration not stated) in this test?
Solution: inactive

Exercise: Look up the recorded call for O=C(CCN1CCN(CCO)CC1)N1c2ccccc2Sc2ccc(C(F)(F)F)cc21 in this test.
Solution: active

Exercise: Lab log entry: CN1CCN(c2cc3c(nn2)Oc2ccccc2N3C)CC1 — outcome as called in the assay?
Solution: inactive

Exercise: Field: outcome | Entry: Cc1c(Nc2ncccc2C(=O)O)cccc1C(F)(F)F
Solution: inactive

---
Exercise: # fetch the recorded call for CC1(C)C[C@@H]1C(=O)N/C(=C\CCCCSC[C@H](N)C(=O)O)C(=O)O here
Solution: inactive

Exercise: Hello, I am checking results. What call was entered for O=C1CN(/N=C/c2ccc(-c3ccc([N+](=O)[O-])cc3)o2)C(=O)N1 ?
Solution: inactive

Exercise: For this compound, state the assay outcome: CCOc1ccc2nc(S(N)(=O)=O)sc2c1
Solution: inactive

Exercise: Which outcome was assigned to O=C(/C=C/c1ccccc1)NCCO in this test?
Solution: inactive

Exercise: Hey, what did the test say about O=C1CC[C@@H](C(=O)N2CSC[C@H]2C(=O)O)N1 ([pGlu]-[Thz]-OH) ?
Solution: inactive

Exercise: I would be grateful if you could indicate the recorded call for COc1ccc(-c2cc(=S)ss2)cc1 .
Solution: inactive

Exercise: Outcome? c1ccc2sc(SSc3nc4ccccc4s3)nc2c1
Solution: inactive

* * *

Experiment: qHTS of Trypanosoma Brucei Inhibitors: LOPAC Validation (AID 624147)
Conditions: purified enzyme assay, luminescence, 45 min; series mostly up to 57.5 µM
Results filed as inconclusive are left out. Calls of active or inactive are those of the source. The call rests on the fitted dose curve; in most records, active means well fitted inhibition curve with a large enough effect; inconclusive means small, poorly fitted or top-dose-only effect; inactive means flat fitted curve, though single readings scatter.
A correct response names exactly one class from label 1 = active, label 0 = inactive

Example entries begin here.
Exercise: Check the results log: what was the call for CC1(C)CCC=[N+]1[O-] ?
Solution: label 0

Exercise: Record lookup: outcome of this test for NC(=O)C(=O)O ?
Solution: label 0

Exercise: // param item: O=c1[nH]c2cc(C(F)(F)F)ccc2n1-c1cc(C(F)(F)F)ccc1O ; yields the recorded call
Solution: label 0

Exercise: Outcome logged for COc1ccc(NC(=O)/C=C/c2ccc(Cl)cc2)cc1 in this assay:
Solution: label 0

Exercise: GET /call?item= CC1OC1P(=O)(O)O (centres undefined) returns the recorded outcome of this test.
Solution: label 0

Others:
Exercise: Which outcome did this test record for the compound CCC1C(=O)OCC1Cc1cncn1C (centres undefined) ?
Solution: label 0

Exercise: Please share the test call associated with Oc1ccccc1O .
Solution: label 0

Exercise: Entry CNc1ncnc2c1ncn2[C@@H]1O[C@H](CO)[C@@H](O)[C@H]1O : call = ?
Solution: label 0

Exercise: So what was the verdict on O=c1[nH]c2cc(Cl)c(Cl)cc2[nH]c1=O in this test?
Solution: label 0

Exercise: Hello, I am checking results. What call was entered for NC(N)=NC(=O)c1nc(Cl)c(N2CCCCCC2)nc1N ?
Solution: label 0

Exercise: Per the records of this test, what outcome belongs to Oc1cc(O)cc(/C=C/c2ccc(O)c(O)c2)c1 ?
Solution: label 1

* * *

Target: Muscarinic acetylcholine receptor M1 (Rattus norvegicus)
Assay: qHTS Assay for Antagonists of Acetylcholine Muscarinic M1 Receptor: Measurement of IP-One Response (AID 944); further: nearly all actives have a fitted effect of over 75% in size
Details: CHO-M1 cells, IP-One HTRF, antagonist mode; series mostly up to 46.1 µM
Records with an inconclusive call do not appear. Active and inactive are the calls of the source. Calls come from the whole dose curve; as a rule, active = well fitted inhibition curve with a large enough effect; inconclusive = small, poorly fitted or top-dose-only effect; inactive = no such curve, though single readings can be large or run the other way.
In this exercise, the only acceptable responses are active, inactive

Exercise: Tell me the assay call for O=C(c1cc(O)c(O)c([N+](=O)[O-])c1)c1ccccc1F please.
Solution: inactive

Exercise: Record lookup: outcome of this test for NC[C@@H]1O[C@H](C23CC4CC(CC(C4)C2)C3)Cc2c1ccc(O)c2O ?
Solution: inactive

Exercise: Given CCCN(CC1CC1)c1nc(C)nc(Nc2c(Cl)cc(Cl)cc2Cl)c1Cl , state the outcome it received in this test.
Solution: inactive

Exercise: Please share the test call associated with O=C(Nc1ccccc1)c1cc([N+](=O)[O-])ccc1Cl .
Solution: inactive

Exercise: Test call, this compound: c1ccc(-c2ccccn2)nc1
Solution: inactive

Others:
Exercise: What did the test return for NC(N)=NC(=O)c1nc(Cl)c(N2CCCCCC2)nc1N ?
Solution: inactive

Exercise: What is the recorded call for this compound in the test? CCN1/C(=C/C(C)=O)Sc2ccc(OC)cc21
Solution: inactive

Exercise: Outcome? C[N+](C)(CCCCCC[N+](C)(C)CCCN1C(=O)c2cccc3cccc(c23)C1=O)CCCN1C(=O)c2cccc3cccc(c23)C1=O
Solution: active

Exercise: Please let me know the test result on file for c1cnc2c(c1)ccc1cccnc12 .
Solution: inactive

Exercise: Hello, I am checking results. What call was entered for O=c1[nH]c2ccccc2n1CCCN1CCN(C(c2ccccc2)c2ccccc2)CC1 ?
Solution: active

Exercise: What is the recorded call for this compound in the test? O=Nc1ccc2oc(=O)ccc2c1
Solution: inactive

* * *

Biological target: ATP-dependent DNA helicase Q1 (Homo sapiens)
Assay: qHTS Validation Assay for Inhibitors of RecQ-Like Dna Helicase 1 (RECQ1) (AID 2353)
Settings: recombinant RECQ1 helicase DNA unwinding assay; series mostly up to 25.6 µM
The source made the active and inactive calls. Calls follow the shape of the dose curve; as a rule, active = well fitted inhibition curve with a large enough effect; inconclusive = small, poorly fitted or top-dose-only effect; inactive = flat fitted curve, though single readings scatter.
Use one of these outcomes when replying: active, inactive

For orientation, consider the following solved cases.
Exercise: State the result this test recorded for O=C(Nc1ccccc1)c1cc([N+](=O)[O-])ccc1Cl .
Solution: inactive

Exercise: What outcome does the record of this test show for CO/N=C(\C(=O)N[C@@H]1C(=O)N2C(C(=O)O)=C(COC(C)=O)CS[C@H]12)c1csc(N)n1 (stereo in doubt) ?
Solution: active

Exercise: What did the test return for CC(=O)SCC[N+](C)(C)C ?
Solution: inactive

Exercise: Would you mind telling me which call this test gave C[C@@H](NC(=O)/C(C#N)=C/c1ccc(O)c(O)c1)c1ccccc1 ?
Solution: inactive

Exercise: Hello, I am checking results. What call was entered for Oc1cc2c(cc1O)CN(C(=S)NCCc1ccc(Cl)cc1)CCC2 ?
Solution: inactive

Exercise: Tell me the assay call for NCCCCC(=O)O please.
Solution: inactive

New cases:
Exercise: Outcome? N#C/C(=C\c1ccc(O)c(O)c1)C(=O)NCCCc1ccccc1
Solution: inactive

Exercise: Which result was noted for this compound in the test: CN[C@H](CC(C)C)C(=O)N[C@H]1C(=O)N[C@@H](CC(N)=O)C(=O)N[C@H]2C(=O)N[C@H]3C(=O)N[C@H](C(=O)N[C@H](C(=O)O)c4cc(O)cc(O)c4-c4cc3ccc4O)[C@H](O)c3ccc(c(Cl)c3)Oc3cc2cc(c3O[C@@H]2O[C@H](CO)[C@@H](O)[C@H](O)[C@H]2O[C@H]2C[C@](C)(N)[C@H](O)[C@H](C)O2)Oc2ccc(cc2Cl)[C@H]1O
Solution: inactive
